Recorded values, source the supplement of paper PMC11451515.

tested on: P12-Ichikawa; assay: AUC of viability dose-response curve (% viability x log10 dose units); higher = less sensitive; details: RPMI 5 mM glucose + 10% FBS; 48 h
propertyMeasured: AUC of viability dose-response curve
Answer with a number only.

// returns reported AUC of viability dose-response curve for input `CN(C)C1=CC=C(C=C1)C(C2=CC=C(C=C2)N(C)C)=C/3\C=C/C(/C=C3)=[N+](C)C` 233

Please report the recorded AUC of viability dose-response curve for `COc1cc2c(cc1OC)CC(=O)N(CCCN(C)C[C@H]1Cc3cc(OC)c(OC)cc31)CC2.Cl` . 477

Bench note: what AUC of viability dose-response curve did `N=C(NCCCCCCNC(=N)NC(=N)Nc1ccc(Cl)cc1)NC(=N)Nc1ccc(Cl)cc1` show? 416

What measured AUC of viability dose-response curve goes with Nc1nc(N)c2nc(CNc3ccc(C(=O)NC(CCC(=O)O)C(=O)O)cc3)cnc2n1 (stereo not given) ? 313

For the compound `CCC[C@H]1C[C@H](C(=O)N[C@@H]([C@@H]2O[C@@H](SC)[C@@H](O)[C@@H](O)[C@H]2O)[C@H](C)Cl)N(C)C1` , what AUC of viability dose-response curve is on record? 455

So what does the record say about AUC of viability dose-response curve for `C[C@@H]1[C@H](O)[C@@H](C)C=CC=CCCC=CC=CC=CC=C[C@H](O[C@H]2O[C@@H](C)[C@H](O)[C@@H](N)[C@H]2O)CC2O[C@](O)(C[C@@H](O)[C@H](O)CC[C@@H](O)C[C@@H](O)C[C@@H](O)CC(=O)O[C@H]1C)C[C@H](O)[C@H]2C(=O)O` ? 429

Which AUC of viability dose-response curve is listed for `CC(C)C(=O)Nc1ccc([N+](=O)[O-])c(C(F)(F)F)c1` ? 360

Item under review: `CC(C)C1=C(O)C=C(O)C(=C1)C/2=N/NC(=O)N2C3=CC4=C(C=C3)[N](C)C=C4` . Reported AUC of viability dose-response curve? 304

Recorded AUC of viability dose-response curve for CCOC(=O)\C1=C(/C)N\C2=C(C1C3=CC=C(C=C3)C4=CC=CC=C4)\C(=O)CC(C)(C)C2 (stereo not given) , please? 457

Quick one: AUC of viability dose-response curve of `CC1(C)O[C@@H]2C[C@H]3[C@@H]4CCC5=CC(=O)C=C[C@]5(C)[C@H]4[C@@H](O)C[C@]3(C)[C@]2(C(=O)CO)O1` ? 357

Fill blank: measured AUC of viability dose-response curve of the compound `CC(C)=CC[C@@H](O)C/1=C/C(=O)C2=C(O)C=CC(=C2C1=O)O` is ____. 415

Which AUC of viability dose-response curve value belongs to `Cc1[nH]c2ccccc2c1CCNCc1ccc(/C=C/C(=O)NO)cc1` ? 292

Give the measured AUC of viability dose-response curve of `CC(=O)O[C@H]1C[C@@H]2CC[C@@H]3[C@H](CC[C@@]4(C)[C@H]3C[C@H]([N+]3(C)CCCCC3)[C@@H]4OC(C)=O)[C@@]2(C)C[C@@H]1N1CCCCC1` . 466

I have this compound here, `COc1cc2nccc(Oc3ccc(NC(=O)NC4CC4)c(Cl)c3)c2cc1C(N)=O` , and I need its recorded AUC of viability dose-response curve. 429

Can you look up the measured AUC of viability dose-response curve of `COc1ccc(-c2nc(N3CCOCC3)c3sc(CN(C)c4ncc(C(=O)NO)cn4)cc3n2)cn1` for me? 162
